- Test: chemical genetic growth profiling, strain panel (AID 1159580);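 also: tested at 20 µM; growth read once vehicle control cultures reached saturation at 30 °C; 1 = growth at the plate median or of vehicle wells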
- Experimental Context: S. cerevisiae deletion strains, growth OD, locus YDL017W, strain CDC7, stronger effect = lower value
In all, about 5,500 compounds went through this assay and about 2,000 (36%) were called active. About 18% were inconclusive and are not listed. This is one part of the list.
Measured Property: normalized growth
Give bare numbers.

Use these answered entries as a reference point.
> print(dat)
                           smiles.structure  measured.property  reported.result
1  O=C(Nc1ccc(N2CCOCC2)cc1)c1ccc(-n2cccn2)cc1  normalized growth            0.983
2  N#CC(C#N)=C/C=C(/Sc1nc2ccccc2s1)c1ccc(Br)cc1  normalized growth            0.207

Kindly give each listed record's normalized growth.
1. Cn1c(CSCCOc2ccccc2)nnc1SCc1ccc(Cl)cc1Cl
2. Fc1cccc(Cl)c1CSc1nncn1-c1ccc(OCc2ccccc2)cc1
3. Fc1cccc(F)c1NC(=S)Nc1cc(C(F)(F)F)cc(C(F)(F)F)c1
4. Cc1ccc(S(=O)(=O)CCSC2=CC(=O)CC(C)(C)S2)cc1

Ans:
1: 0.986; 2: 1.01; 3: 0.992; 4: 0.998

----------
- Test: chemical genetic growth profiling, strain panel (AID 1159580);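 also: tested at 20 µM; growth read once vehicle control cultures reached saturation at 30 °C; 1 = growth at the plate median or of vehicle wells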
- Experimental Context: S. cerevisiae deletion strains, growth OD, locus YCL061C, strain MRC1
Out of some 5,500 compounds screened, about 2,000 (36%) were called active. About 18% were inconclusive and are not listed. Rule as the data show it: active = normalized growth mostly below about 0.91 (no sharp cut-off); inconclusive = no clear call, values can overlap the other calls; inactive = mostly above about 0.92. Some of the results follow.
Field 'call' accepts active, inactive

Look over these answered cases.
Compound	Assigned Class
OC[C@@H](O)[C@@H](O[C@@H]1O[C@H](CO)[C@@H](O)[C@H](O)[C@H]1O)[C@H](O)[C@@H](O)CO	inactive
Cc1c(O)c(O)cc2c1CC=C1[C@@]2(C)CC[C@@]2(C)C3C[C@](C)(C(=O)O)CC[C@]3(C)CC[C@]12C (stereo partly specified)	active
COc1c2c(cc3c1OCO3)CCN(C)C2	inactive
COc1ccc(NS(=O)(=O)c2c(C)noc2C)cc1	inactive
CC(C)(C)NS(=O)(=O)NC(C)(C)C	inactive

Q: Dear all, I need the recorded test outcome for O=C(OC1Cc2c(O)cc(O)cc2OC1c1cc(O)c(O)c(O)c1-c1c(C2Oc3cc(O)cc(O)c3CC2OC(=O)c2cc(O)c(O)c(O)c2)cc(O)c(O)c1O)c1cc(O)c(O)c(O)c1 (stereo unspecified) , thank you.
Ans: inactive

Q: Test call for this compound, please: CN[C@H](CC(=O)O)C(=O)O
Ans: inactive

Q: Given CC(C)(C)NCC(O)c1ccccc1Cl (stereo unspecified) , state the outcome it received in this test.
Ans: inactive

----------
- Test: chemical genetic growth profiling, strain panel (AID 1159580);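 also: tested at 20 µM; growth read once vehicle control cultures reached saturation at 30 °C; 1 = growth at the plate median or of vehicle wells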
- Experimental Context: S. cerevisiae deletion strains, growth OD, locus YMR307W, strain GAS1
Among all 5,500 compounds or so, about 2,000 (36%) were called active. About 18% were inconclusive and are not listed. No stated cut-off is given here; in the data, active means normalized growth mostly below about 0.91 (no sharp cut-off); inconclusive means no clear call, values can overlap the other calls; inactive means mostly above about 0.92. This is one part of the list.
Give one outcome, nothing more. List: 1 for active, 0 for inactive

> print(dat)
                                   compound  assigned.class
1  Nc1nc2c(ncn2C2C[C@H](O)[C@@H](CO)O2)c(=O)[nH]1 (some centres not stated)               0

Q: Please let me know the test result on file for N[C@@H](Cc1ccc(O)c(O)c1)C(=O)O .
Ans: 0

Q: Could you kindly confirm the outcome this assay logged for Nc1ncnc2c1ncn2C1C[C@H](O)[C@@H](CO)O1 (some centres not stated) ?
Ans: 0

Q: Which outcome was entered for the compound CN1C(CC(=O)c2ccccc2)CCCC1CC(O)c1ccccc1 (configuration not stated) in this test?
Ans: 0

Q: I'd appreciate the recorded outcome for O=c1[nH]c(=O)n(C2C[C@@H](O)[C@@H](CO)O2)cc1F (some centres not stated) from this test.
Ans: 0

Q: Any idea what this test logged for COc1cc(CNC(=O)CCCCCCC(C)C)ccc1O ?
Ans: 0

Q: So what was the verdict on O=C1CCCC2C3CC(CN12)[C@@H]1CCCCN1C3 (some centres not stated) in this test?
Ans: 0

Q: Hi team, can someone confirm the assay call for CN1CCN(C=Nc2ncc(C(F)(F)F)cc2Cl)CC1 ?
Ans: 0

Q: What call does the record list for O=C(NCCSCc1ccc(Cl)cc1)c1ccc(Cl)cc1 ?
Ans: 0

Q: Called result for CCCC(C)C1(CC)C(=O)NC(=O)NC1=O (configuration not stated)
Ans: 0

Q: Each compound tested received a call. Report the one for C=C(C)C1CC=C(C(=O)O)CC1 (configuration not stated) .
Ans: 0

Q: Please state the recorded outcome for this compound: C=CCC1(C(C)CCC)C(=O)N=C(S)NC1=O (configuration not stated)
Ans: 0

Q: Hi, do you know how O=C1C=CC2=C3c4cc(O)c(O)cc4CC3(O)COC2=C1O (configuration not stated) came out in this test?
Ans: 0

Q: Please state the recorded outcome for this compound: O=C(CCCCCCCCCCCCC1CCCC1)Nc1ccc(S(=O)(=O)c2ccc(NC(=O)CCCCCCCCCCCCC3CCCC3)cc2)cc1
Ans: 0

Q: Query: recorded result category for OC(CNCCc1cccs1)COc1ccccc1 (configuration not stated) in this test
Ans: 0

Q: I'd appreciate the recorded outcome for COc1ccccc1OCCNCC(O)COc1cccc2[nH]c3ccccc3c12 (configuration not stated) from this test.
Ans: 0

Q: Which outcome was entered for the compound Nc1ncnc2c1ncn2C1O[C@H](COP(=O)(O)O)[C@@H](O)[C@H]1O (some centres not stated) in this test?
Ans: 0

Q: Which outcome did this test record for the compound C=C(C)[C@H]1CC=C(C(=O)O)CC1 ?
Ans: 0

Q: Assay result, entry CSC(N)=NCCC[C@H](N)C(=O)O — outcome?
Ans: 0

Q: Please state the recorded outcome for this compound: O=S(=O)(O)C1CCNCC1
Ans: 0

Q: Would you mind telling me which call this test gave O=C(O)/C=C/C=C/c1ccccc1 ?
Ans: 0

Q: Tell me the assay call for CC(C)NCC(O)c1ccc2ccccc2c1 (configuration not stated) please.
Ans: 0

Q: Field: outcome | Entry: O=C(O)/C=C/c1cnc[nH]1
Ans: 0
